# Target: recombinant hemagglutinin HA1 subunit (rHA, H5) (Influenza A virus A/Vietnam/1203/2004 …, UniProt Q5EP31 17-346)
# Measurement Description: BLI; rHA immobilized; apparent KD; BLI at 30 C in sodium-potassium phosphate buffer pH 7.4 ([…]
# Test Context: protein: commercial; label: none (rHA); 5'-biotin (vHA BLI); parallel G4, 86% monomer
Readout Label: pKd
Scale note: pKd = -log10(concentration in M).

-- ask Output measured pKd for this item: TTGGGGTTAGGGAGGGCGGGGGTT (structured_DNA) [G7-TTA_A_C]
-- reply 9.40
